Assay: in vitro
Details: human
Here, each record is paired with measured viability at 4 h, 50 µM data.
Your answer should be a plain number; it is taken to be in %.

Here are 5 compounds together with their reported answers.
compound=Cc1nc(NC(=O)C(C)(C)C)sc1-c1csc(N(CC(C)(C)O)C2CCCCC2)n1 test_value=94.8
compound=Cc1nc(NC(=O)C(C)(C)C)sc1-c1csc(Nc2cccc(C(=O)O)c2)n1 test_value=94.1
compound=CC(=O)c1cccc(N(CCO)c2nc(-c3sc(NC(=O)C(C)(C)C)nc3C)cs2)c1 test_value=94.5
compound=Cc1nc(NC(=O)C(C)(C)C)sc1-c1csc(N(CCO)CCO)n1 test_value=92.6
compound="Cc1nc(NC(=O)C(C)(C)C)sc1-c1csc(NCC(O)CO)n1 (stereo not drawn)" test_value=96

Field: next compound
What measured viability at 4 h, 50 µM goes with Cc1nc(NC(=O)C(C)(C)C)sc1-c1csc(NCC(C)(C)O)n1 ?
98.3

----------
Tested on: hRV14
Experiment: Multicycle CPE reduction antiviral assay, hRV14 in HeLa cells
Type: cell-based, human rhinovirus 14
Details: 3 days
result.type: IC50 (nM)
Form entry: value (nM) — number only.

I would be grateful if you could share the reported IC50 for Cc1nc2c(NCc3cccc(S(C)(=O)=O)c3)nccn2c1-c1ccc(O)c(F)c1 [BF738735, reference compound] .
590

----------
The entries below are paired with their reported Membrane Retention (% MR).
Test: in vitro
Assay type: in vitro ADME
Settings: PAMPA, 5 h, 500 μM, pH 7.4

compound="Cc1nc(NC(=O)C(C)(C)C)sc1-c1csc(NCC(O)CO)n1 (stereo not drawn)" result_type="Membrane Retention (% MR)" test_value="< 0.1%"
compound=Cc1nc(NC(=O)C(C)(C)C)sc1-c1csc(NCC(C)(C)O)n1 result_type="Membrane Retention (% MR)" test_value="< 0.1%"
compound=Cc1nc(NC(=O)C(C)(C)C)sc1-c1csc(Nc2cccc(C(=O)O)c2)n1 result_type="Membrane Retention (% MR)" test_value="< 0.1%"
compound=Cc1nc(NC(=O)C(C)(C)C)sc1-c1csc(N(CCO)CCO)n1 result_type="Membrane Retention (% MR)" test_value=0.94%
compound=Cc1nc(NC(=O)C(C)(C)C)sc1-c1csc(N(CC(C)(C)O)C2CCCCC2)n1 result_type="Membrane Retention (% MR)" test_value=18.05%

If you can, please state the reported Membrane Retention (% MR) value of CC(=O)c1cccc(N(CCO)c2nc(-c3sc(NC(=O)C(C)(C)C)nc3C)cs2)c1 .
< 0.1%

----------
Assay: in vitro
Conditions: human
result.type: viability

I am curious: what viability value has been reported for Cc1nc(NC(=O)C(C)(C)C)sc1-c1csc(N(CC(C)(C)O)C2CCCCC2)n1 ?
> 95%

----------
Test: physchem
Type: physicochemical
Conditions: pH 7.4, aqueous buffer
Everything with solubility lower than 0.3 µg/mL is condition not met; everything else, including exactly 0.3 µg/mL, is condition met.

Could you tell me if the measured solubility of Cc1nc(NC(=O)C(C)(C)C)sc1-c1csc(NCC(C)(C)O)n1 reaches 0.3 µg/mL or more?
condition met

Identify whether the reported solubility of the following compound is 0.3 µg/mL or greater: Cc1nc(NC(=O)C(C)(C)C)sc1-c1csc(Nc2cccc(C(=O)O)c2)n1
condition not met

Say whether Cc1nc(NC(=O)C(C)(C)C)sc1-c1csc(N(CC(C)(C)O)C2CCCCC2)n1 shows solubility of 0.3 µg/mL or more.
condition not met

Evaluate Cc1nc(NC(=O)C(C)(C)C)sc1-c1csc(N(CCO)CCO)n1 : solubility at minimum 0.3 µg/mL?
condition not met

Quick check, solubility >= 0.3 µg/mL? Cc1nc(NC(=O)C(C)(C)C)sc1-c1csc(NCC(O)CO)n1 (centres unmarked)
condition met

----------
Experiment: in vitro
Format: in vitro ADME
Conditions: PAMPA, pH 7.4
Use MET when the recorded Papp at 5 h, 500 μM is no lower than 0.02 ×10⁻⁶ cm/s; use NOT MET when it is lower.

molecule=Cc1nc(NC(=O)C(C)(C)C)sc1-c1csc(N(CC(C)(C)O)C2CCCCC2)n1 cat=MET
molecule=Cc1nc(NC(=O)C(C)(C)C)sc1-c1csc(N(CCO)CCO)n1 cat=MET
molecule=Cc1nc(NC(=O)C(C)(C)C)sc1-c1csc(NCC(C)(C)O)n1 cat=MET
molecule="Cc1nc(NC(=O)C(C)(C)C)sc1-c1csc(NCC(O)CO)n1 (centres unmarked)" cat="NOT MET"

Then this molecule:
Given the entry Cc1nc(NC(=O)C(C)(C)C)sc1-c1csc(Nc2cccc(C(=O)O)c2)n1 , answer whether its Papp at 5 h, 500 μM meets or surpasses 0.02 ×10⁻⁶ cm/s.
MET

----------
Test: Stability in medium/serum solution
Type: in vitro ADME
Conditions: EMEM, 2 mM L-glut, 1 % FBS, 1 % Pen/Strep, 37 °C
Sorting guide: entries reporting Stability in Medium/Serum 48 h beneath 90% go in the satisfied pile, the rest go in the not satisfied pile.

Completed entries (count: 3):
molecule=Cc1nc(NC(=O)C(C)(C)C)sc1-c1csc(N(CC(C)(C)O)C2CCCCC2)n1 cat=satisfied
molecule=Cc1nc(NC(=O)C(C)(C)C)sc1-c1csc(N(CCO)CCO)n1 cat=satisfied
molecule=Cc1nc(NC(=O)C(C)(C)C)sc1-c1csc(NCC(C)(C)O)n1 cat=satisfied

# strict comparison: is reported Stability in Medium/Serum 48 h < 90%? input = Cc1nc(NC(=O)C(C)(C)C)sc1-c1csc(NCC(O)CO)n1 (stereo not drawn)
not satisfied

Field: below-cutoff. Rule: recorded Stability in Medium/Serum 48 h strictly less than 90%. Subject: Cc1nc(NC(=O)C(C)(C)C)sc1-c1csc(Nc2cccc(C(=O)O)c2)n1
not satisfied

----------
Items are presented alongside their recorded IC50.
Test system: ZIKV
Test: Direct yield reduction assay (DYRA), ZIKV in Huh7 cells
Assay type: cell-based, Zika virus
Conditions: Zika virus, Huh-7; Huh7 cells, DYRA, 72 h; read-out: ZIKV Huh7 IC50
Give the quantity in µM, number only.

// solved cases for IC50 follow
molecule=Cc1nc(NC(=O)C(C)(C)C)sc1-c1csc(NCC(C)(C)O)n1 result_type=IC50 test_value=0.83
molecule="Cc1nc(NC(=O)C(C)(C)C)sc1-c1csc(NCC(O)CO)n1 (centres unmarked)" result_type=IC50 test_value=46.5
molecule=Cc1nc(NC(=O)C(C)(C)C)sc1-c1csc(N(CC(C)(C)O)C2CCCCC2)n1 result_type=IC50 test_value=0.51
molecule=Cc1nc(NC(=O)C(C)(C)C)sc1-c1csc(N(CCO)CCO)n1 result_type=IC50 test_value=5

Bench note: what IC50 did CC(=O)c1cccc(N(CCO)c2nc(-c3sc(NC(=O)C(C)(C)C)nc3C)cs2)c1 show?
1

----------
Format: in vitro ADME
Conditions: human, 24 h, 100 µM, pH 7.4
result.type: Plasma Stability (%)
Value expressed in %; do not type the unit.

Known results for compounds:
compound=Cc1nc(NC(=O)C(C)(C)C)sc1-c1csc(N(CC(C)(C)O)C2CCCCC2)n1 test_value=92.4
compound="Cc1nc(NC(=O)C(C)(C)C)sc1-c1csc(NCC(O)CO)n1 (centres unmarked)" test_value=99.4
compound=Cc1nc(NC(=O)C(C)(C)C)sc1-c1csc(NCC(C)(C)O)n1 test_value=92.3

Name the recorded Plasma Stability for Cc1nc(NC(=O)C(C)(C)C)sc1-c1csc(N(CCO)CCO)n1 .
90.2

# Plasma Stability lookup, item Cc1nc(NC(=O)C(C)(C)C)sc1-c1csc(Nc2cccc(C(=O)O)c2)n1
99.1

----------
Target: PI4KIIIβ (Homo sapiens, UniProt Q9UBF8)
Construct: Recombinant full length, HIS6 -tagged PI4KIIIβ was purchased from ProQinase; His6
Sequence (Q9UBF8 whole entry): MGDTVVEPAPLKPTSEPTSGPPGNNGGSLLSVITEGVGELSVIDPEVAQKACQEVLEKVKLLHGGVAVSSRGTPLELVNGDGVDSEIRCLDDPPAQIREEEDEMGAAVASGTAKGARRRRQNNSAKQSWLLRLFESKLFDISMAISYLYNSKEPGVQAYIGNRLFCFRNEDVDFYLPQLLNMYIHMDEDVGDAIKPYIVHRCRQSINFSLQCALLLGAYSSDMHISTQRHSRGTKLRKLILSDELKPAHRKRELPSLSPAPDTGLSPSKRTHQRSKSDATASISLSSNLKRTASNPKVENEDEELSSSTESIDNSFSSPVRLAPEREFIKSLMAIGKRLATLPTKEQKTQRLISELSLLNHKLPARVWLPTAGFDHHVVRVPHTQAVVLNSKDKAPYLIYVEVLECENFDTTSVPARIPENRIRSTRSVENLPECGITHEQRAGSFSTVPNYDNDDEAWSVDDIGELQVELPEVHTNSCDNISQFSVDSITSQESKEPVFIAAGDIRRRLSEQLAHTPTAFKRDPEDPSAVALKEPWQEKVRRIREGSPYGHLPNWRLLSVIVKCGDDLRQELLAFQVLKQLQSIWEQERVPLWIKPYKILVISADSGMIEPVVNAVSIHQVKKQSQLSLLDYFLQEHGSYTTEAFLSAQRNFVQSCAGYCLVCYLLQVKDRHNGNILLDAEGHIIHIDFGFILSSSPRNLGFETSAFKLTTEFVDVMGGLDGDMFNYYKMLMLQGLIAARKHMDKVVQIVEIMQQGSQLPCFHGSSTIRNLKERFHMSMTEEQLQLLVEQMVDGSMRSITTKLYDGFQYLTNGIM
Test: In vitro kinase inhibition assay, PI4KIIIβ
Settings: mean of at least three independent experiments; 20 μM ATP
result.type: pIC50
Expect pIC50 as a plain number equal to -log10 of the molar concentration.

Study these solved cases before continuing.
compound=Cc1nc(NC(=O)C(C)(C)C)sc1-c1csc(N(CC(C)(C)O)C2CCCCC2)n1 target_or_test_system="PI4KIIIβ (Homo sapiens, UniProt Q9UBF8)" test_value=5.71
compound=Cc1nc(NC(=O)C(C)(C)C)sc1-c1csc(N(CCO)CCO)n1 target_or_test_system="PI4KIIIβ (Homo sapiens, UniProt Q9UBF8)" test_value=6.62
compound=CC(=O)c1cccc(N(CCO)c2nc(-c3sc(NC(=O)C(C)(C)C)nc3C)cs2)c1 target_or_test_system="PI4KIIIβ (Homo sapiens, UniProt Q9UBF8)" test_value=5.68
compound="Cc1nc(NC(=O)C(C)(C)C)sc1-c1csc(NCC(O)CO)n1 (centres unmarked)" target_or_test_system="PI4KIIIβ (Homo sapiens, UniProt Q9UBF8)" test_value=6.54

Which pIC50 reading was recorded for the compound Cc1nc(NC(=O)C(C)(C)C)sc1-c1csc(NCC(C)(C)O)n1 ?
6.05
